# Tested on: KB-3-1
# procedureText: Cytotoxic Profiling of Annotated Libraries Using Quantitative High-Throughput Screening (AID 1296008); note: nearly all actives have a fitted effect of over 60% in size
# conditionsUsed: Five cell lines viability, CellTiter-Glo ATP luminescence, 48-72 h
Results filed as inconclusive are left out. Calls of active or inactive are those of the source. Calls come from the whole dose curve; as a rule, active = well fitted inhibition curve with a large enough effect; inconclusive = small, poorly fitted or top-dose-only effect; inactive = flat fitted curve, though single readings scatter.
Return exactly one item of active, inactive

Hi, sorry to bother you, what did the test record for CCC(C)C(=O)OC1CC(O)C23C4OCC5(C(O)CC2C1(C)C(O)O4)C3C(=O)CC1(C)C(c2ccoc2)CC2OC215 (centres undefined) ? active

Hi, sorry to bother you, what did the test record for COC(=O)C1=CO[C@@H](O[C@@H]2O[C@H](CO)[C@@H](O)[C@H](O)[C@H]2O)C2C1C(=O)C[C@H]2C (some centres undefined) ? inactive

Hi, sorry to bother you, what did the test record for C=CC(=O)Nc1cc(Nc2nccc(-c3c[nH]c4ccccc34)n2)c(OC)cc1N(C)CCN(C)C ? active

Hi, sorry to bother you, what did the test record for O=C(c1ccc(/C=C/c2n[nH]c3ccccc23)cc1)N1CCNCC1 ? active

* * *

# System: Zika virus NS2B-NS3 protease (linked construct)
# procedureText: Primary screen NINDS Rhodamine qHTS for Zika virus inhibitors (AID 1347160); note: nearly all actives have a fitted effect of over 55% in size
# conditionsUsed: purified NS2B-NS3 protease, Rhodamine110 substrate fluorescence; series mostly up to 57.1 µM
Results filed as inconclusive are left out. Active and inactive are the calls of the source. The call rests on the fitted dose curve; in most records, active means well fitted inhibition curve with a large enough effect; inconclusive means small, poorly fitted or top-dose-only effect; inactive means no such curve, though single readings can be large or run the other way.
Return exactly one item of class 1 (active), class 0 (inactive)

Hi, sorry to bother you, what did the test record for C=C(C)C1Cc2cc(C(=O)OC3OC(CO)C(O)C(O)C3O)ccc2O1 (stereo not drawn) ? class 0

Hi, sorry to bother you, what did the test record for CC1(C)CC2C=C(C(=O)O)C3COC(=O)C(O)(CO)C23C1 (stereo not drawn) ? class 0

Hi, sorry to bother you, what did the test record for O=C(O)c1cc2cccc([N+](=O)[O-])c2[nH]1 ? class 0

Hi, sorry to bother you, what did the test record for O=C(OCC1=CC(O)C2C=CO[C@@H](O[C@@H]3O[C@H](CO)[C@@H](O)[C@H](O)[C@H]3O)C12)c1ccccc1 (stereo partly drawn) ? class 0

Hi, sorry to bother you, what did the test record for CC(C)N(CCCCOCC(=O)NS(C)(=O)=O)c1cnc(-c2ccccc2)c(-c2ccccc2)n1 ? class 1

Hi, sorry to bother you, what did the test record for CC1CCC2(OC1)OC1CC3C4CCC5C[C@@H](O[C@@H]6O[C@H](CO[C@@H]7OC[C@@H](O)[C@H](O)[C@H]7O)[C@H](O)[C@H](O)[C@H]6O)CC[C@]5(C)C4CC[C@]3(C)C1C2C (stereo partly drawn) ? class 0

Hi, sorry to bother you, what did the test record for C=CC[C@]12C[C@@H](OC)C(=O)C(OC)=C1O[C@@H](c1cc(OC)c3c(c1)OCO3)[C@@H]2C ? class 0

Hi, sorry to bother you, what did the test record for COC(=O)CC(O)CC(O)/C=C/c1c(C)ccc2c1C(O)CC(C)C2 (stereo not drawn) ? class 0

* * *

# procedureText: Primary qHTS for inhibitors of nuclear receptor binding SET domain protein 2 (NSD2) in an isogenic RCH-ACV NSD2 p.E1099K mutant (9B) (AID 1645876); note: nearly all actives have a fitted effect of over 70% in size
# conditionsUsed: RCH-ACV (leukaemia line) NSD2 E1099K (9B) viability, CellTiter-Glo, 72 h; series mostly up to 44.9 µM
Inconclusive results are not listed. Activity calls are given as the source filed them. Calls come from the whole dose curve; as a rule, active = well fitted inhibition curve with a large enough effect; inconclusive = small, poorly fitted or top-dose-only effect; inactive = flat fitted curve, though single readings scatter.
Return exactly one item of true (1) (active), false (0) (inactive)

Hi, sorry to bother you, what did the test record for CC[C@H](CO)Nc1nc(NCc2ccc(-c3ccccn3)cc2)c2ncn(C(C)C)c2n1 ? true (1)

Hi, sorry to bother you, what did the test record for COc1cc(NC(=O)Nc2cccc(CNC(=O)O[C@H]3CCOC3)c2)ccc1-c1cnco1 ? true (1)

Hi, sorry to bother you, what did the test record for O=C1CC2(CCCC2)[C@H](O)C(=O)N1CCCCN1CCN(c2ncccn2)CC1 ? false (0)

Hi, sorry to bother you, what did the test record for CC(C)C(CO)Nc1nc(Nc2cc(N)cc(Cl)c2)c2ncn(C(C)C)c2n1 (configuration not stated) ? true (1)

Hi, sorry to bother you, what did the test record for COc1ccc([C@@H]2OC[C@H]3[C@@H]2CO[C@@H]3c2ccc(OC3OC(CO)C(O)C(O)C3O)c(OC)c2)cc1OC (some centres not stated) ? false (0)

Hi, sorry to bother you, what did the test record for O=C(OC1C=C(CO)C2C(OC3OC(CO)C(O)C(O)C3O)OC=CC12)c1ccc(O)cc1 (configuration not stated) ? false (0)

Hi, sorry to bother you, what did the test record for Cc1[nH]c2ccccc2c1C1=C(NCCc2ccc(F)cc2)C(=O)N(C)C1=O ? true (1)

Hi, sorry to bother you, what did the test record for CC1CCC2C(C)(C)[C@@H](O)CC[C@]2(C)C12Cc1c(O)cc3c(c1O2)CN(C(CCC(=O)O)C(=O)O)C3=O (some centres not stated) ? false (0)

Hi, sorry to bother you, what did the test record for COc1c2c(c(C)c3c1C(=O)OC3)O[C@@]1(C)CC(O)C(C(C)(C)O)[C@](C)(CCC(=O)O)[C@H]1C2 (some centres not stated) ? false (0)

Hi, sorry to bother you, what did the test record for O=C1Nc2ccccc2C(O)(c2ccccc2)C1O (configuration not stated) ? false (0)

Hi, sorry to bother you, what did the test record for Cc1cc(C(=O)N2CCCCc3ccccc32)ccc1CNC(=O)N1CCC[C@H]1C(=O)N(C)C ? false (0)

Hi, sorry to bother you, what did the test record for CC[C@]1(O)CC2CN(CCc3c([nH]c4ccccc34)[C@@](C(=O)OC)(c3cc4c(cc3OC)N(C=O)[C@H]3[C@@](O)(C(=O)OC)[C@H](OC(C)=O)[C@]5(CC)C=CCN6CC[C@]43[C@@H]65)C2)C1 (some centres not stated) ? true (1)

Hi, sorry to bother you, what did the test record for COc1ncc2cc(C(=O)Nc3cc(C(=O)NCc4cccc(Cl)c4)ccc3Cl)c(=O)[nH]c2n1 ? true (1)

Hi, sorry to bother you, what did the test record for CCNC(=O)Nc1ccc(-c2nc3c(c(N4CCOC[C@@H]4C)n2)CCN(c2ncccn2)C3)cc1 ? true (1)

Hi, sorry to bother you, what did the test record for COC(=O)C1=CO[C@@H](O[C@@H]2O[C@H](CO)[C@@H](O)[C@H](O)[C@H]2O)[C@@H]2[C@@](C)(O)[C@@H](OC(=O)/C=C/c3ccc(O)cc3)C[C@]12O ? false (0)

Hi, sorry to bother you, what did the test record for N#Cc1ccc(C(=O)N2CCC3(CC2)N=C(N)c2c(F)ccc(F)c2N3)cn1 ? false (0)

Hi, sorry to bother you, what did the test record for COC(=O)N1CCC(n2ncc3c(N4CCOCC4)nc(-c4ccc(NC(=O)Nc5ccc(CO)cc5)cc4)nc32)CC1 ? true (1)
